Test system: Haemophilus Influenzae
Assay: in vitro antibacterial activity, agar dilution method (MIC)
Type: cell-based
Details: Haemophilus influenzae, strain 519A; BHI agar, 20-24 hours; read-out: MIC
Each item that follows carries a reported MIC.
property: MIC (µg/mL)

1. CCC1OC(=O)CC(O)C(C)C(OC2OC(C)C(O)C(N(C)C)C2O)C(CC=O)CC(C)C(N(C)C)CCC(C)=CC1COC(C)=O (stereo not drawn)    2
2. CCC1OC(=O)CC(O)C(C)C(OC2OC(C)CC(N(C)C)C2O)C(CC=O)CC(C)C(N(C)C)CCC2(C)OC2C1C (stereo not drawn)    0.25
3. CCC1OC(=O)CC(O)C(C)C(OC2OC(C)CC(N(C)C)C2O)C(CC=O)CC(C)C(N(C)C)C=CC(C)=CC1COC(C)=O (stereo not drawn)    1
4. CCC1OC(=O)CC(O)C(C)C(OC2OC(C)CC(N(C)C)C2O)C(CC=O)CC(C)C(N(C)C)C=CC2(C)OC2C1C (stereo not drawn)    0.5
5. CC[C@H]1OC(=O)C[C@@H](O)[C@H](C)[C@@H](O[C@@H]2O[C@H](C)C[C@H](N(C)C)[C@H]2O)[C@@H](CC=O)C[C@@H](C)C(=O)/C=C/[C@]2(C)O[C@H]2[C@@H]1C [Rosaramicin, reference compound]    0.5
6. CCC1OC(=O)CC(O)C(C)C(OC2OC(C)C(O)C(N(C)C)C2O)C(CC=O)CC(C)C(N(C)C)C=CC(C)=CC1COC(C)=O (stereo not drawn)    1

---

Each item that follows carries a reported MIC.
System: Enterobacter Aerogenes
Assay: in vitro antibacterial activity, agar dilution method (MIC)
Format: cell-based
Conditions: Klebsiella aerogenes, ATCC13048, strain ATCC 13048; BHI agar, 20-24 hours; read-out: MIC
property: MIC (µg/mL)

1. CC[C@H]1OC(=O)C[C@@H](O)[C@H](C)[C@@H](O[C@@H]2O[C@H](C)C[C@H](N(C)C)[C@H]2O)[C@@H](CC=O)C[C@@H](C)C(=O)/C=C/[C@]2(C)O[C@H]2[C@@H]1C [Rosaramicin, reference compound]    25
2. CCC1OC(=O)CC(O)C(C)C(OC2OC(C)C(O)C(N(C)C)C2O)C(CC=O)CC(C)C(N(C)C)C=CC(C)=CC1COC(C)=O (stereo not drawn)    100

---

System: Staphylococcus Epidermidis
Experiment: in vitro antibacterial activity, agar dilution method (MIC)
Format: cell-based
Settings: Staphylococcus epidermidis, strain 3519; BHI agar, 20-24 hours; read-out: MIC
property: MIC (µg/mL)

1) CCC1OC(=O)CC(O)C(C)C(OC2OC(C)CC(N(C)C)C2O)C(CC=O)CC(C)C(N(C)C)CCC(C)=CC1COC(C)=O (stereo not drawn)    1.56
2) CCC1OC(=O)CC(O)C(C)C(OC2OC(C)C(O)C(N(C)C)C2O)C(CC=O)CC(C)C(N(C)C)C=CC(C)=CC1COC(C)=O (stereo not drawn)    0.78
3) CCC1OC(=O)CC(O)C(C)C(OC2OC(C)CC(N(C)C)C2O)C(CC=O)CC(C)C(N(C)C)C=CC(C)=CC1COC(C)=O (stereo not drawn)    0.39
4) CCC1OC(=O)CC(O)C(C)C(OC2OC(C)CC(N(C)C)C2O)C(CC=O)CC(C)C(N(C)C)C=CC2(C)OC2C1C (stereo not drawn)    0.78
5) CC[C@H]1OC(=O)C[C@@H](O)[C@H](C)[C@@H](O[C@@H]2O[C@H](C)C[C@H](N(C)C)[C@H]2O)[C@@H](CC=O)C[C@@H](C)C(=O)/C=C/[C@]2(C)O[C@H]2[C@@H]1C [Rosaramicin, reference compound]    0.39
6) CCC1OC(=O)CC(O)C(C)C(OC2OC(C)C(O)C(N(C)C)C2O)C(CC=O)CC(C)C(N(C)C)CCC(C)=CC1COC(C)=O (stereo not drawn)    3.1

---

System: Haemophilus Influenzae
Assay: in vitro antibacterial activity, agar dilution method (MIC)
Assay type: cell-based
Conditions: Haemophilus influenzae, strain 566A; BHI agar, 20-24 hours; read-out: MIC
Each item that follows carries a reported MIC.
property: MIC

1. CCC1OC(=O)CC(O)C(C)C(OC2OC(C)C(O)C(N(C)C)C2O)C(CC=O)CC(C)C(N(C)C)C=CC(C)=CC1COC(C)=O (stereo not drawn)    1 µg/mL
2. CCC1OC(=O)CC(O)C(C)C(OC2OC(C)C(O)C(N(C)C)C2O)C(CC=O)CC(C)C(N(C)C)CCC(C)=CC1COC(C)=O (stereo not drawn)    8 µg/mL
3. CCC1OC(=O)CC(O)C(C)C(OC2OC(C)CC(N(C)C)C2O)C(CC=O)CC(C)C(N(C)C)C=CC2(C)OC2C1C (stereo not drawn)    2 µg/mL
4. CCC1OC(=O)CC(O)C(C)C(OC2OC(C)CC(N(C)C)C2O)C(CC=O)CC(C)C(N(C)C)CCC(C)=CC1COC(C)=O (stereo not drawn)    2 µg/mL
5. CCC1OC(=O)CC(O)C(C)C(OC2OC(C)CC(N(C)C)C2O)C(CC=O)CC(C)C(N(C)C)C=CC(C)=CC1COC(C)=O (stereo not drawn)    4 µg/mL
6. CCC1OC(=O)CC(O)C(C)C(OC2OC(C)CC(N(C)C)C2O)C(CC=O)CC(C)C(N(C)C)CCC2(C)OC2C1C (stereo not drawn)    2 µg/mL

---

Each item that follows carries a reported MIC.
System: Haemophilus Influenzae
Experiment: in vitro antibacterial activity, agar dilution method (MIC)
Format: cell-based
Conditions: Haemophilus influenzae, ATCC10211, strain ATCC 10211; BHI agar, 20-24 hours; read-out: MIC
property: MIC (µg/mL)

1) CC[C@H]1OC(=O)C[C@@H](O)[C@H](C)[C@@H](O[C@@H]2O[C@H](C)C[C@H](N(C)C)[C@H]2O)[C@@H](CC=O)C[C@@H](C)C(=O)/C=C/[C@]2(C)O[C@H]2[C@@H]1C [Rosaramicin, reference compound]    0.5
2) CCC1OC(=O)CC(O)C(C)C(OC2OC(C)CC(N(C)C)C2O)C(CC=O)CC(C)C(N(C)C)CCC(C)=CC1COC(C)=O (stereo not shown)    2
3) CCC1OC(=O)CC(O)C(C)C(OC2OC(C)C(O)C(N(C)C)C2O)C(CC=O)CC(C)C(N(C)C)CCC(C)=CC1COC(C)=O (stereo not shown)    4
4) CCC1OC(=O)CC(O)C(C)C(OC2OC(C)CC(N(C)C)C2O)C(CC=O)CC(C)C(N(C)C)C=CC(C)=CC1COC(C)=O (stereo not shown)    2

---

Test system: Providencia Stuartii
Experiment: in vitro antibacterial activity, agar dilution method (MIC)
Type: cell-based
Settings: Providencia stuartii; strain CMX 640; BHI agar, 20-24 hours; read-out: MIC
property: MIC

1) CCC1OC(=O)CC(O)C(C)C(OC2OC(C)C(O)C(N(C)C)C2O)C(CC=O)CC(C)C(N(C)C)CCC(C)=CC1COC(C)=O (stereo not shown) [Example 6]    > 100 µg/mL
2) CCC1OC(=O)CC(O)C(C)C(OC2OC(C)CC(N(C)C)C2O)C(CC=O)CC(C)C(N(C)C)C=CC(C)=CC1COC(C)=O (stereo not shown) [Example 5]    > 100 µg/mL
3) CCC1OC(=O)CC(O)C(C)C(OC2OC(C)CC(N(C)C)C2O)C(CC=O)CC(C)C(N(C)C)CCC2(C)OC2C1C (stereo not shown) [Example 2]    > 100 µg/mL
4) CC[C@H]1OC(=O)C[C@@H](O)[C@H](C)[C@@H](O[C@@H]2O[C@H](C)C[C@H](N(C)C)[C@H]2O)[C@@H](CC=O)C[C@@H](C)C(=O)/C=C/[C@]2(C)O[C@H]2[C@@H]1C [Rosaramicin, reference compound]    100 µg/mL

---

Tested on: Streptococcus Pyogenes
Experiment: in vitro antibacterial activity, agar dilution method (MIC)
Format: cell-based
Conditions: Streptococcus pyogenes, strain 930 CONST; BHI agar, 20-24 hours; read-out: MIC
Each item that follows carries a reported MIC.
property: MIC

1) CCC1OC(=O)CC(O)C(C)C(OC2OC(C)CC(N(C)C)C2O)C(CC=O)CC(C)C(N(C)C)CCC2(C)OC2C1C (stereo not shown) [Example 2]    > 100 µg/mL
2) CCC1OC(=O)CC(O)C(C)C(OC2OC(C)C(O)C(N(C)C)C2O)C(CC=O)CC(C)C(N(C)C)C=CC(C)=CC1COC(C)=O (stereo not shown) [Example 4]    > 100 µg/mL
3) CCC1OC(=O)CC(O)C(C)C(OC2OC(C)CC(N(C)C)C2O)C(CC=O)CC(C)C(N(C)C)C=CC2(C)OC2C1C (stereo not shown) [Example 1]    > 100 µg/mL
4) CCC1OC(=O)CC(O)C(C)C(OC2OC(C)CC(N(C)C)C2O)C(CC=O)CC(C)C(N(C)C)C=CC(C)=CC1COC(C)=O (stereo not shown) [Example 5]    50 µg/mL
